The reader will find reported melting point values listed item by item below.

Would you please look over these solved cases?
{"columns": ["Molecular string", "Observed result"],
 "data": [
  ["CCOc1c(C)cccc1-c1nc2ccc(C(=O)O)cc2c(=O)[nH]1", "240 to 241 °C"],
  ["CCNC(=O)OCCOc1ccc(Oc2cccc(Cl)c2)cc1Cl", "73 to 74 °C"],
  ["CS(=O)(=O)Nc1cc2occ(Nc3ccccc3)c(=O)c2cc1Oc1ccccc1", "212 to 213 °C"],
  ["CCc1c(CC(=O)NCCCCCCNC(=O)Cc2ccc(OC)c(OC)c2CC)ccc(OC)c1OC", "169 to 172 °C"]
]}

Then this compound:
For the compound shown here, N#Cc1c[nH]c2cccc(O)c12 , give the reported melting point.
206 to 207 °C
